Measured Ki accompanies every entry in the list below.
target: human recombinant 5-HT2B receptor (Homo sapiens, UniProt P41595); assay: 5-HT2B receptor radioligand binding ([3H]mesulergine, CHO membranes)
Sequence (P41595 whole entry): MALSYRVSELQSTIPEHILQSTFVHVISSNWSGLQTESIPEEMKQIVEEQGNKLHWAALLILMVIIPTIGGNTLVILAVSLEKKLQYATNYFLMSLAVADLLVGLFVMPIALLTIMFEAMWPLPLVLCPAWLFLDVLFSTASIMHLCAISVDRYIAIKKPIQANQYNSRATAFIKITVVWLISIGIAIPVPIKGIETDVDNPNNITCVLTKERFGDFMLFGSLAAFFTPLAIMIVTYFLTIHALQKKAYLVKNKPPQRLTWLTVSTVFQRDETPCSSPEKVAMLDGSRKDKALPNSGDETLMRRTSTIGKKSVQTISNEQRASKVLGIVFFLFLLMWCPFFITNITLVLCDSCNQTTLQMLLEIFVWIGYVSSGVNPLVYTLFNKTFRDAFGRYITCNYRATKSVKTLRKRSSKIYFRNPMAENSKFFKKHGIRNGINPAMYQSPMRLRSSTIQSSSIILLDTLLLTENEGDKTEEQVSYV
Provide the reading as a plain figure in nM.

Compound	Result Units	Ki
c1ccc(-c2c3c(nn2C2CCCCC2)CCNCC3)cc1 [Example 177]	nM	7

Req: What does the data say about its Ki? Entry: Clc1ccc(-c2c3c(nn2C2CCCC2)CCNCC3)cc1 [Example 181]
Resp: 1.8

Req: Then Cc1ccc(-c2c3c(nn2C2CCCC2)CC(C)NCC3)cc1 (stereo not drawn) [Example 310] ?
Resp: 0.4

====

biological target: human recombinant 5-HT2B receptor (Homo sapiens, UniProt P41595); experiment: 5-HT2B receptor radioligand binding ([3H]mesulergine, CHO membranes);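 further: competitive displacement binding on membranes of CHO cells stably expressing the receptor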
Measured Property: pKi
By convention, pKi is the negative base-10 log of a molar concentration.

# count of solved cases: 4
Compound	pKi
CCC(CC)n1nc2c(c1-c1ccc(F)cc1)CCNCC2	7.77
CCC(CC)n1nc2c(c1-c1cccc(F)c1)CCNCC2	7.27
CCc1ccc(-c2c3c(nn2CC)CCNCC3)cc1	8.70
c1csc(-c2c3c(nn2C2CCCC2)CCNCC3)c1	7.60

Req: What does the data say about its pKi? Entry: `CCC(CC)n1nc2c(c1-c1ccc(F)c(C)c1)CCNCC2`
Resp: 7.22

Req: Then `c1ccc(-c2c3c(nn2C2CCCC2)CCNCC3)cc1` ?
Resp: 8.85

Req: Then `c1cc(-c2c3c(nn2C2CC2)CCNCC3)cs1` ?
Resp: 8.22

Req: Then `CCn1nc2c(c1-c1ccc(C)cc1)CCNCC2` ?
Resp: 8.70

Req: Then `CC(C)Cn1nc2c(c1-c1ccc(Cl)cc1)CCNCC2` ?
Resp: 8.38

Req: Then `CN1CCc2c(-c3ccc(Cl)cc3)nn(Cc3ccccc3)c2CC1` ?
Resp: 6.51

Req: Then `Fc1ccc(-c2c3c(nn2C2CCCC2)CCNCC3)cc1` ?
Resp: 8.85

Req: Then `Fc1ccc(Cn2nc(-c3ccc(Cl)cc3)c3c2CCNCC3)cc1` ?
Resp: 7.00

Req: Then CC1CNCCc2c1nn(C(C)C)c2-c1ccc(F)cc1 (stereo not drawn) ?
Resp: 7.66

Req: Then `c1cc(-c2c3c(nn2C2CCCC2)CCNCC3)co1` ?
Resp: 9.30

Req: Then `Clc1ccc(-c2nn(Cc3ccncc3)c3c2CCNCC3)cc1` ?
Resp: 6.28

Req: Then `Cc1ccc(-c2c3c(nn2C(C)C)CCNCC3)cc1` ?
Resp: 8.85

Req: Then CCC(C)n1nc2c(c1-c1ccc(F)cc1)CCNCC2 (stereo not drawn) ?
Resp: 8.05

Req: Then `CC(C)(C)n1nc2c(c1-c1ccc(F)cc1)CCNCC2` ?
Resp: 7.70

Req: Then `FC(F)(F)c1ccc(-c2c3c(nn2C2CCCC2)CCNCC3)cc1` ?
Resp: 8.74

Req: Then `COc1ccc(-c2c3c(nn2C2CCCC2)CCNCC3)cc1` ?
Resp: 9.26

Req: Then `c1ccc(-c2c3c(nn2C2CCC2)CCNCC3)cc1` ?
Resp: 8.60

Req: Then `c1cc(-c2c3c(nn2C2CCCC2)CCNCC3)cs1` ?
Resp: 9.05

Req: Then `CC(C)(C)n1nc2c(c1-c1ccccc1)CCNCC2` ?
Resp: 7.02

Req: Then `COc1ccc(-c2c3c(nn2C(C)C)CCNCC3)cc1` ?
Resp: 8.89

Req: Then `Fc1cccc(Cn2nc(-c3ccc(Cl)cc3)c3c2CCNCC3)c1` ?
Resp: 6.46

Req: Then `Oc1ccc(Cn2nc(-c3ccc(Cl)cc3)c3c2CCNCC3)cc1F` ?
Resp: 6.46

Req: Then CC1Cc2c(nn(C3CCCC3)c2-c2ccc(F)cc2)CCN1 (stereo not drawn) ?
Resp: 7.82
